The following compounds are listed with their measured viability values.
procedure.summary: reversal of MRP1-mediated doxorubicin resistance, pilot screen, H69AR cells, doxorubicin co-treatment (AID 601)
condition.info: H69AR cells + 2 uM doxorubicin, CellTiter-Glo, 72 h; measured here: viability with 2 uM doxorubicin; at 10 µM; stronger effect = lower value

compound: CN1C2C=C3C(C#N)=C(N)C(C#N)(C#N)[C@@H](c4ccc(Cl)cc4)[C@@H]3C1CC2 (some centres not stated)
viability / %: 94.9
--
compound: Cc1ccc(-c2cc(C(=O)NCCN3CCOCC3)no2)cc1
viability / %: 87
--
compound: O=C(CNS(=O)(=O)c1ccc(Br)s1)N1CCCC1
viability / %: 90.1
--
compound: CC(=O)C1=C(O)C(=O)N(Cc2ccco2)C1c1ccc2c(c1)OCO2 (configuration not stated)
viability / %: 105
--
compound: O=C(Nc1ccc(-c2noc(-c3cccs3)n2)cc1)c1cccnc1
viability / %: 79.5
--
compound: CCCn1c(SCC(=O)N2CCc3ccccc3C2)nc2c1c(=O)n(C)c(=O)n2C
viability / %: 81.9
--
compound: O=c1c2c(-c3ccccc3)csc2nc2n1CCC2
viability / %: 84.4
--
compound: c1cc(-c2nc3ccccc3o2)nc(-c2nc3ccccc3o2)c1
viability / %: 80.2
--
compound: O=C(Cn1cnc2c(cnn2-c2ccc(F)cc2)c1=O)N1CCCc2ccccc21
viability / %: 102
--
compound: C=CCSc1nc(N)c(C(=O)Nc2ccccc2C)cc1C(N)=O
viability / %: 89.6
--
compound: COc1cccc(NC(=O)COC(=O)c2ccco2)c1
viability / %: 81.1
--
compound: C=CCN1C(=O)/C(=C2\SC(N3CCOCC3)=NC2=O)c2cc(Br)ccc21
viability / %: 87.5
--
compound: CC1(C)Cc2c(c(-c3ccccc3)nc(N3CCCC3)c2C(N)=O)CO1
viability / %: 82.4
--
compound: COc1ccc(CCn2c(NCCCN3CCOCC3)nc3c2c(=O)[nH]c(=O)n3C)cc1
viability / %: 86.9
--
compound: Cc1ccc(-c2noc(-c3ccccc3C(=O)NCC3CCCO3)n2)cc1 (configuration not stated)
viability / %: 94.4
--
compound: CCOCCCNCC(=O)N1CCN(S(=O)(=O)c2ccc(C)cc2)CC1
viability / %: 89.4
--
compound: COc1cc(Cn2c(C(=O)O)cc3sccc32)cc(OC)c1OC
viability / %: 91.7
--
compound: COC(=O)Nc1nc2c(C)cccc2s1
viability / %: 73.5
--
compound: CCCN(Cc1cc2ccc(C)cc2[nH]c1=O)C(=O)c1cccnc1
viability / %: 89.7
--
compound: Cc1ccc(C(C)n2cc(C(=O)NCCN3CCN(C)CC3)nn2)cc1 (configuration not stated)
viability / %: 91.1
--
compound: Cc1nn(C)cc1NC(=O)CCSc1nc(-c2ccco2)cc(C(F)(F)F)n1
viability / %: 81.9
--
compound: Cc1ccc(S(=O)(=O)N2CCC(C(=O)N[C@@H](Cc3ccccc3)C(=O)O)CC2)cc1
viability / %: 77.1

* * *

The following molecules are listed with their measured inhibition values.
procedure.summary: growth suppression of yeast trafficking mutant, preliminary HTS, modulators of trafficking downstream of Golgi apparatus project, 1536-format plate, OD 615 nm (AID 637)
condition.info: yeast transport mutant growth, absorbance 615 nm, 18 h; stronger effect = higher value

molecule: Cc1ccc(/C=c2\sc3nc(-c4ccccc4Br)nn3c2=O)o1
inhibition / %: 10.7
--
molecule: COc1cc(CN2CCN(C(=O)CC(C)C)CC2)cc(OC)c1O
inhibition / %: -4.6
--
molecule: O=C(Nc1ccc2c(c1)OCCO2)c1ccco1
inhibition / %: -5.08
--
molecule: COc1ccc(C(CNC(=O)CN2C(=O)NC3(CC(C)CC(C)(C)C3)C2=O)N2CCOCC2)cc1 (stereo not drawn)
inhibition / %: -2.62
--
molecule: CC(NS(=O)(=O)c1ccc(F)cc1)C(c1cccs1)N1CCN(C)CC1 (stereo not drawn)
inhibition / %: -5.67
--
molecule: O=C(CN1C(=O)NC2(CCCCCC2)C1=O)N1CCC(Cc2ccccc2)CC1
inhibition / %: 2.46
--
molecule: O=C(COC(=O)C12CC3CC(CC(O)(C3)C1)C2)N1CCN(S(=O)(=O)c2ccc(Cl)cc2)CC1
inhibition / %: -4.17
--
molecule: CCOC(=O)c1sc(N2C(=O)C(O)=C(C(=O)c3ccco3)C2c2ccccc2)nc1C (stereo not drawn)
inhibition / %: 0.98
--
molecule: COc1ccc2c(CC(=O)Nc3ccc(OC)c(NS(=O)(=O)c4ccc(F)cc4)c3)coc2c1
inhibition / %: -0.33
--
molecule: O=C1CC(N2CCOCC2)C(=O)N1c1ccccc1Cl (stereo not drawn)
inhibition / %: -5.24
--
molecule: Cc1ccc(Oc2ccc(-c3nc(N)nc(N)n3)cc2)cc1
inhibition / %: 2.1
--
molecule: CCOC(=O)C1=C(C)NC(C)=C(C(=O)OCC)C1c1cc(N)ccc1OC(F)F
inhibition / %: -7.21
--
molecule: O=C(N1CCCCCC1)N1CCN(S(=O)(=O)N2CCCCC2)CC1
inhibition / %: -2.26
--
molecule: CCOC(=O)N1CCN(C(=O)CSc2ncnc3ccccc23)CC1
inhibition / %: 0.33
--
molecule: CCN1C(=O)/C(=C2\C=Cc3ccccc3N2CC)OC1=S
inhibition / %: 2.33
--
molecule: COc1ccc(Cl)cc1S(=O)(=O)n1cnc2ccccc21
inhibition / %: -2.3
--
molecule: Cc1ccc2c(c1)NC(=O)C(CC(=O)NC1CCCCC1C)O2 (stereo not drawn)
inhibition / %: -1.15
--
molecule: CCCC(=O)OCCn1c(Br)nc2c1c(=O)[nH]c(=O)n2C
inhibition / %: 1.45
--
molecule: COc1ccc(C2=NOC(C(=O)NCCCN3CCOCC3)C2)cc1 (stereo not drawn)
inhibition / %: 9.34
--
molecule: COCCNC(=O)C(C)OC(=O)c1nsc(Cl)c1Cl (stereo not drawn)
inhibition / %: 25.7
--
molecule: O=C(O)C1CC(=O)N(c2ccc(OCc3ccccc3Cl)cc2)C1 (stereo not drawn)
inhibition / %: 17.8
--
molecule: CC1CN(C(=O)CSc2nnc(-c3ccncc3)n2-c2ccccc2)CC(C)O1 (stereo not drawn)
inhibition / %: 0.32
--
molecule: CCOc1cc(C(=O)N2CCN=C2SC)cc(OCC)c1OCC
inhibition / %: 9.05
